Entry source: patent US12486259B2

System: C57/BL6 mice fed MCD diet
Assay explanation: Pharmacodynamic test in methionine-choline deficient diet (MCD) model of non-alcoholic fatty liver disease
Type: in vivo
Condition: MCD mice, blood, after 4 weeks; TM 30 mpk, obeticholic acid 40 mpk
Readout name: LDL (blood lipid) (mmol/L)
State the answer as a number, implicitly in mmol/L.

{"columns": ["Molecule", "LDL (blood lipid) (mmol/L)"],
 "data": [
  ["CC[C@H]1[C@@H](O)[C@@H]2[C@H](CC[C@]3(C)[C@@H]([C@H](C)CCC(=O)O)CC[C@@H]23)[C@@]2(C)CC[C@@H](O)C[C@@H]12 [obeticholic acid, reference compound]", 2.80],
  ["CC(C)c1onc(-c2c(Cl)cccc2Cl)c1COc1cnc(C2(O)CC(c3cccc(C(=O)O)c3)C2)cn1 (centres unmarked)", 3.01],
  ["O=C(O)c1cccc(C2CC(O)(c3cnc(OCc4c(-c5c(Cl)cccc5Cl)noc4C4CC4)cn3)C2)c1 (centres unmarked)", 2.61],
  ["O=C(O)c1cccc(N2CC(O)(c3cnc(OCc4c(-c5c(Cl)cccc5Cl)noc4C4CC4)cn3)C2)c1", 2.93]
]}

Look up C57/BL6 mice fed MCD diet data: LDL (blood lipid) of Cc1cc(C(=O)O)cc(C2CC(O)(c3cnc(OCc4c(-c5c(Cl)cccc5Cl)noc4C(C)C)cn3)C2)c1 (centres unmarked) , then report it.
2.52

====

Assay explanation: in vitro
Condition: human, Caco-2, Recovery rate A-B, Sample-02
Readout name: recovery (%)
Numeric answer only, unit % assumed.

{"columns": ["Molecule", "Readout name", "Result value"],
 "data": [
  ["CC(C)(C)NCC(O)COc1cccc2c1CC(O)C(O)C2 (stereo not shown) [Nadolol, reference compound]", "recovery", 88],
  ["O=C(O)c1cccc(C2CC(O)(c3cnc(OCc4c(-c5c(Cl)cccc5Cl)noc4C4CC4)cn3)C2)c1 (stereo not shown)", "recovery", 78.5]
]}

Answer with the recorded recovery for the molecule listed here: Cc1cc(C(=O)O)cc(C2CC(O)(c3cnc(OCc4c(-c5c(Cl)cccc5Cl)noc4C(C)C)cn3)C2)c1 (stereo not shown)
82

====

Tested on: C57/BL6 mice fed MCD diet
Assay explanation: Pharmacodynamic test in methionine-choline deficient diet (MCD) model of non-alcoholic fatty liver disease
Assay type: in vivo
Condition: MCD mice, 2 weeks; TM 30 mpk, obeticholic acid 40 mpk, gavage
Listing of entries alongside the reported Food intake, 2 weeks.
Output spec: scalar in g, unitless text.

{"columns": ["Compound", "Target or test system", "Result value"],
 "data": [
  ["Cc1cc(C(=O)O)cc(C2CC(O)(c3cnc(OCc4c(-c5c(Cl)cccc5Cl)noc4C(C)C)cn3)C2)c1 (centres unmarked)", "C57/BL6 mice fed MCD diet", 2.707],
  ["CC[C@H]1[C@@H](O)[C@@H]2[C@H](CC[C@]3(C)[C@@H]([C@H](C)CCC(=O)O)CC[C@@H]23)[C@@]2(C)CC[C@@H](O)C[C@@H]12 [obeticholic acid, reference compound]", "C57/BL6 mice fed MCD diet", 2.945],
  ["O=C(O)c1cccc(C2CC(O)(c3cnc(OCc4c(-c5c(Cl)cccc5Cl)noc4C4CC4)cn3)C2)c1 (centres unmarked)", "C57/BL6 mice fed MCD diet", 2.746],
  ["CC(C)c1onc(-c2c(Cl)cccc2Cl)c1COc1cnc(C2(O)CC(c3cccc(C(=O)O)c3)C2)cn1 (centres unmarked)", "C57/BL6 mice fed MCD diet", 2.664]
]}

With those in mind, consider the next compound.
Give me measured Food intake, 2 weeks, please, for this compound: O=C(O)c1cccc(N2CC(O)(c3cnc(OCc4c(-c5c(Cl)cccc5Cl)noc4C4CC4)cn3)C2)c1
2.400

====

Test system: C57/BL6 mice fed MCD diet
Assay explanation: Pharmacodynamic test in methionine-choline deficient diet (MCD) model of non-alcoholic fatty liver disease
Format: in vivo
Condition: MCD mice, blood, 3 weeks; TM 30 mpk, obeticholic acid 40 mpk, gavage
Each entry below carries its reported AST, 3 weeks.
Hi! Could you send only the number? It should be in U/L, unit omitted.

Field: example entries. Status: answers known.
{"columns": ["Compound", "Units", "AST, 3 weeks"],
 "data": [
  ["Cc1cc(C(=O)O)cc(C2CC(O)(c3cnc(OCc4c(-c5c(Cl)cccc5Cl)noc4C(C)C)cn3)C2)c1 (centres unmarked) [TM-09]", "U/L", 45.04],
  ["O=C(O)c1cccc(C2CC(O)(c3cnc(OCc4c(-c5c(Cl)cccc5Cl)noc4C4CC4)cn3)C2)c1 (centres unmarked) [TM-01]", "U/L", 53.50],
  ["CC[C@H]1[C@@H](O)[C@@H]2[C@H](CC[C@]3(C)[C@@H]([C@H](C)CCC(=O)O)CC[C@@H]23)[C@@]2(C)CC[C@@H](O)C[C@@H]12 [obeticholic acid, reference compound]", "U/L", 197.24]
]}

Please report AST, 3 weeks for the following compound: CC(C)c1onc(-c2c(Cl)cccc2Cl)c1COc1cnc(C2(O)CC(c3cccc(C(=O)O)c3)C2)cn1 (centres unmarked) [TM-06]
52.14

Consider the compound O=C(O)c1cccc(N2CC(O)(c3cnc(OCc4c(-c5c(Cl)cccc5Cl)noc4C4CC4)cn3)C2)c1 [TM-02] . State its measured AST, 3 weeks.
113.46

====

Assay explanation: in vitro
Condition: human, Caco-2, Papp A-B, Sample-01
Param threshold (8 ×10⁻⁶ cm/s) applies to Papp A→B; output label 1 when value >= threshold, label 0 when value < threshold.

{"columns": ["Molecule", "Category"],
 "data": [
  ["O=C(O)c1cccc(N2CC(O)(c3cnc(OCc4c(-c5c(Cl)cccc5Cl)noc4C4CC4)cn3)C2)c1", "label 1"],
  ["Cc1cc(C(=O)O)cc(C2CC(O)(c3cnc(OCc4c(-c5c(Cl)cccc5Cl)noc4C4CC4)cn3)C2)c1 (centres unmarked)", "label 0"],
  ["CC(C)(C)NCC(O)COc1cccc2c1CC(O)C(O)C2 (centres unmarked) [Nadolol, reference compound]", "label 0"],
  ["O=C(O)c1cccc(C2CC(O)(c3ccc(OCc4c(-c5c(Cl)cccc5Cl)noc4C4CC4)cc3Cl)C2)c1 (centres unmarked) [Compound M3, reference compound]", "label 0"],
  ["Cc1cc(C(=O)O)cc(C2CC(O)(c3cnc(OCc4c(-c5c(Cl)cccc5Cl)noc4C(C)C)cn3)C2)c1 (centres unmarked)", "label 1"]
]}

Does the molecule O=C(O)c1cccc(C2CC(O)(c3cnc(OCc4c(-c5c(Cl)cccc5Cl)noc4C4CC4)cn3)C2)c1 (centres unmarked) have recorded Papp A→B that is 8 ×10⁻⁶ cm/s or more?
label 0

// inclusive: Papp A→B at least 8 ×10⁻⁶ cm/s? input: COCCc1ccc(OCC(O)CNC(C)C)cc1 (centres unmarked) [Metoprolol, reference compound]
label 1

====

Assay explanation: Caco-2 monolayer cell membrane transport experiment
Condition: human, Caco-2, Papp A-B, Sample-01, Caco-2, A-B, Sample-01
Readout name: Papp A→B

Give recorded Papp A→B. C[C@H]1O[C@@H](O[C@H]2[C@@H](O)C[C@H](O[C@H]3[C@@H](O)C[C@H](O[C@H]4CC[C@@]5(C)[C@H](CC[C@@H]6[C@@H]5C[C@@H](O)[C@]5(C)[C@@H](C7=CC(=O)OC7)CC[C@]65O)C4)O[C@@H]3C)O[C@@H]2C)C[C@H](O)[C@@H]1O [Digoxin, digoxin, reference compound]
< 0.05 ×10⁻⁶ cm/s

====

Target or test system: GST-labeled recombinant human FXR protein (Homo sapiens)
Sequence (Q96RI1 262-486 limits assumed): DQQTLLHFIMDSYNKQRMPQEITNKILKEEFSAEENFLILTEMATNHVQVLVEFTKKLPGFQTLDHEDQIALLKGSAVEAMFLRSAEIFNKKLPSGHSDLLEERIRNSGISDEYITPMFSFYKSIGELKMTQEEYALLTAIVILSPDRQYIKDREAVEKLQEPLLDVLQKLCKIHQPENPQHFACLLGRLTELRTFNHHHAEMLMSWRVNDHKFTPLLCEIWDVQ
Sequence (Q15788 676-700 partner limits assumed): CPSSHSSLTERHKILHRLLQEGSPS
Assay explanation: Agonistic activity on FXR receptor (GST-FXR / SRC-1 bead assay, protein level)
Condition: 0.4 nM FXR, 30 nM SRC-1, protein level
Readout name: EC50 (nM)
// note: answer is a bare numeric in nM

Recorded results for 3 compounds are shown here.
{"columns": ["Compound", "EC50 (nM)"],
 "data": [
  ["O=C(O)c1cccc(C2CC(O)(c3ccc(OCc4c(-c5c(Cl)cccc5Cl)noc4C4CC4)cc3Cl)C2)c1 (stereo not shown) [Compound M3, reference compound]", 1090],
  ["O=C(O)c1cccc(C2CC(O)(c3cnc(OCc4c(-c5c(Cl)cccc5Cl)noc4C4CC4)cn3)C2)c1 (stereo not shown) [TM-01]", 540],
  ["O=C(O)c1cccc(N2CC(O)(c3cnc(OCc4c(-c5c(Cl)cccc5Cl)noc4C4CC4)cn3)C2)c1 [TM-02]", 2320]
]}

Output EC50 of Cc1cc(C(=O)O)cc(C2CC(O)(c3cnc(OCc4c(-c5c(Cl)cccc5Cl)noc4C4CC4)cn3)C2)c1 (stereo not shown) [TM-08]
240
